Ref: ChEMBL document CHEMBL3352756

# EXPERIMENT DESCRIPTION: Cytotoxicity against mouse RAW264.7 cells assessed as cell viability at 20 uM after 24 hrs by MTT assay in presence of LPS
# Assay type: cell-based
# RUN CONDITIONS: RAW264.7 cells, read-out: Activity
Answer each item with its documented viability at 24 h, 20 µM.

Below are 3 compounds. Give each one its viability at 24 h, 20 µM.
1. NS(=O)(=O)c1ccc2nc(N3N=C(c4ccc(Cl)cc4)CC3c3ccc(Cl)cc3)sc2c1 (stereo not drawn)
2. NS(=O)(=O)c1ccc2nc(N3N=C(c4ccc(Cl)cc4)CC3c3ccccc3Cl)sc2c1 (stereo not drawn)
3. NS(=O)(=O)c1ccc2nc(N3N=C(c4ccc(Cl)cc4)CC3c3ccccc3)sc2c1 (stereo not drawn)

Response:
> 90%
> 90%
> 90%
